Target: human TLR8 (Homo sapiens (Human), UniProt Q9NR97)
Sequence (Q9NR97 27-1041): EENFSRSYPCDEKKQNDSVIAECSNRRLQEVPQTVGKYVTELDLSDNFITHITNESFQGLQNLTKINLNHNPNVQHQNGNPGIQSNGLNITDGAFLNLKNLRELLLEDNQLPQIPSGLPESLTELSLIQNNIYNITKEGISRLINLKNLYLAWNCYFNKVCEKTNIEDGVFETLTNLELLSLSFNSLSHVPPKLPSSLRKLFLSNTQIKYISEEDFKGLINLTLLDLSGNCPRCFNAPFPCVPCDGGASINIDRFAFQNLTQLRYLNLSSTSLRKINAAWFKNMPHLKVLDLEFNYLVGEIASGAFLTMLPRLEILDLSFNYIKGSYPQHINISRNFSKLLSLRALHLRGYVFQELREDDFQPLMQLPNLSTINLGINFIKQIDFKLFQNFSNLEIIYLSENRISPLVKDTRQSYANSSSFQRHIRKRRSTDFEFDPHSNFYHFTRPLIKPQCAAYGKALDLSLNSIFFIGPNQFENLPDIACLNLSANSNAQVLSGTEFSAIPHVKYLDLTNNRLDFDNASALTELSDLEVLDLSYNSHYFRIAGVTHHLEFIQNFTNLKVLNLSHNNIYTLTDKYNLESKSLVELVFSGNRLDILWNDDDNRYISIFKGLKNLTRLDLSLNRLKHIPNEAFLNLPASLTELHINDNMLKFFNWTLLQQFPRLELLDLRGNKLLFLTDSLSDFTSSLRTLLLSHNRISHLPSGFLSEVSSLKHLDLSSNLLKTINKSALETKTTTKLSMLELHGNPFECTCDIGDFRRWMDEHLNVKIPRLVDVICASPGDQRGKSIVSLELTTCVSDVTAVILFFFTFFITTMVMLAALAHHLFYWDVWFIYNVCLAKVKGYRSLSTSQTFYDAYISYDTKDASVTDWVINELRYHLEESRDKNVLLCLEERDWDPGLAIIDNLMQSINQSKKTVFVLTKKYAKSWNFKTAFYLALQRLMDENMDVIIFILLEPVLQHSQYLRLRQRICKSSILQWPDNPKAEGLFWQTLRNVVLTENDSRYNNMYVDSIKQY
Test: TLR8 inhibition reporter assay (HEK-Blue SEAP reporter, R848 stimulation);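 note: SEAP driven by IFN-β minimal promoter with NF-κB and AP-1 sites, 22 h incubation, compounds 0.05 nM–50 µM, inhibition scaled between agonist plus DMSO and reference inhibitor wells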
Settings: read-out: TLR8 IC50; HEK-Blue cells overexpressing human TLR8, R848 15.9 μM, SEAP reporter
Measured IC50 accompanies every entry in the list below.
readout-type: IC50 (nM)

compound=CCc1c(-c2ccc(OC)c(OC)c2)[nH]c2ccc(C(=O)N3CCCC(C)(C)C3)cc12 readout_type=IC50 measure_unit=nM assay_value=545
compound="Cc1cc(-c2[nH]c3ccc(C(C)(C)C(=O)N4CC5CC(C4)C5N)cc3c2C(C)C)ccn1 (stereo not shown)" readout_type=IC50 measure_unit=nM assay_value=79
compound=CCc1c(-c2ccc(OC)c(OC)c2)[nH]c2ccc(C(=O)N3CC[C@@H](N(C)C)C3)cc12 readout_type=IC50 measure_unit=nM assay_value=34
compound=Cc1c(-c2[nH]c3ccc(C(=O)N(C)CCN(C)C)cc3c2C(C)C)cn(C)c(=O)c1Cl readout_type=IC50 measure_unit=nM assay_value=10
compound=Cc1cc(-c2[nH]c3ccc(C(C)(C)C(=O)N4CCC(OC5CCNCC5)CC4)cc3c2C(C)C)ccn1 readout_type=IC50 measure_unit=nM assay_value=58
compound="Cc1cc(-c2[nH]c3ccc(C(C)(C)C(=O)N4CC5CNCC5C4)cc3c2C(C)C)ccn1 (stereo not shown)" readout_type=IC50 measure_unit=nM assay_value=103
compound="CCN(CC)C(=O)C1CCCN(CC(=O)N2CC3CN(C(=O)c4ccc5[nH]c(-c6ccc(OC)c(OC)c6)c(C(C)C)c5c4)CC3C2)C1 (racemic) [Example 8]" readout_type=IC50 measure_unit=nM assay_value=126

----------
Measured IC50 accompanies every entry in the list below.
Biological target: human TLR7 (Homo sapiens (Human))
Sequence (Q9NYK1 27-1049): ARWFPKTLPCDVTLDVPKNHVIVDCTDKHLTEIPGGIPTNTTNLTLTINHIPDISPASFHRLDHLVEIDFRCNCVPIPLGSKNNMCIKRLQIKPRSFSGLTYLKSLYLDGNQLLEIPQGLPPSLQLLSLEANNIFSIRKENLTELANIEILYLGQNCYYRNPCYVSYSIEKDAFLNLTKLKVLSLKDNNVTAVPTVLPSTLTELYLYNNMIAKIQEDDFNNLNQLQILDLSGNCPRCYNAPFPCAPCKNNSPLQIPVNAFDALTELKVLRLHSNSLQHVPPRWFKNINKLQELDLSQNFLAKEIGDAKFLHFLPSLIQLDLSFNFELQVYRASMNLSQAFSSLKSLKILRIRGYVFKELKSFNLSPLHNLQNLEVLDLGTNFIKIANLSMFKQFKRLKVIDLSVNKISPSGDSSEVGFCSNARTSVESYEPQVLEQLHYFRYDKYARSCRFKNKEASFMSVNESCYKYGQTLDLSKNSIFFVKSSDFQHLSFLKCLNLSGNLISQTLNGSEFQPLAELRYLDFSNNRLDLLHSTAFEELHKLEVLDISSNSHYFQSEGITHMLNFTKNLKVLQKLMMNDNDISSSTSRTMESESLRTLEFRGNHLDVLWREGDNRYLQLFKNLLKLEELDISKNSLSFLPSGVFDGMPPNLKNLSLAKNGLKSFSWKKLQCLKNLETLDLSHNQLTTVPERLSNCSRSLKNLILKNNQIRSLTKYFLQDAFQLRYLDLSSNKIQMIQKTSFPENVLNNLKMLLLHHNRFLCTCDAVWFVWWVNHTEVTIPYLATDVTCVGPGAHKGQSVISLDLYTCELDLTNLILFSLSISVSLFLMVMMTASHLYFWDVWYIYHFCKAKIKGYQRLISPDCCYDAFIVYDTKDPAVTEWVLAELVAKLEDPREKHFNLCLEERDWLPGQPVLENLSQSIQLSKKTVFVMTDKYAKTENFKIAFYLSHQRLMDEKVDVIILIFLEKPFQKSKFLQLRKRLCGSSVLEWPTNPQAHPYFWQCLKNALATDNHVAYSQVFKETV
Assay: TLR7 inhibition reporter assay (HEK-Blue SEAP reporter, gardiquimod stimulation)
Assay type: cell-based
Details: HEK-Blue cells overexpressing human TLR7, gardiquimod 7.5 μM
readout-type: IC50 (nM)

compound="Cc1cc(-c2[nH]c3ccc(C(C)(C)C(=O)NC4CCC5CNCC54)cc3c2C(C)C)ccn1 (stereo not drawn) [Example 147]" measure_unit=nM assay_value=109
compound=Cc1cc(-c2[nH]c3ccc(C(C)(C)C(=O)N4CCC[C@H](N)C4)cc3c2C(C)C)ccn1 measure_unit=nM assay_value=113
compound="Cc1cc(-c2[nH]c3ccc(C(C)(C)C(=O)N4CCCC5(CCNC5)C4)cc3c2C(C)C)ccn1 (stereo not drawn)" measure_unit=nM assay_value=91

----------
Target: UniProtKB Q9NYK1
Assay: TLR7 inhibition reporter assay (HEK-Blue SEAP reporter, gardiquimod stimulation)
Assay type: cell-based
Conditions: HEK-Blue cells overexpressing human TLR7, gardiquimod 7.5 μM
pIC50: −log10 of the molar value.
Measured pIC50 accompanies every entry in the list below.
readout-type: pIC50

molecule="CNC(=O)c1ccc2[nH]c(-c3ccc(OC)c(OC)c3)c(C(C)C)c2c1 [Example 4]" assay_value=6.84
molecule="Cc1cc(-c2[nH]c3ccc(C(=O)N4CC5CN(C)CC5C4)cc3c2C(C)C)ccn1 (stereo not drawn) [Example 115]" assay_value=6.83
molecule="CCc1c(-c2ccc(OC)c(OC)c2)[nH]c2ccc(C(=O)NCCCN(C)C)cc12 [Example 75]" assay_value=6.91

----------
Measured pIC50 accompanies every entry in the list below.
Target: human TLR9 (Homo sapiens (Human))
Sequence (Q9NR96 26-1032): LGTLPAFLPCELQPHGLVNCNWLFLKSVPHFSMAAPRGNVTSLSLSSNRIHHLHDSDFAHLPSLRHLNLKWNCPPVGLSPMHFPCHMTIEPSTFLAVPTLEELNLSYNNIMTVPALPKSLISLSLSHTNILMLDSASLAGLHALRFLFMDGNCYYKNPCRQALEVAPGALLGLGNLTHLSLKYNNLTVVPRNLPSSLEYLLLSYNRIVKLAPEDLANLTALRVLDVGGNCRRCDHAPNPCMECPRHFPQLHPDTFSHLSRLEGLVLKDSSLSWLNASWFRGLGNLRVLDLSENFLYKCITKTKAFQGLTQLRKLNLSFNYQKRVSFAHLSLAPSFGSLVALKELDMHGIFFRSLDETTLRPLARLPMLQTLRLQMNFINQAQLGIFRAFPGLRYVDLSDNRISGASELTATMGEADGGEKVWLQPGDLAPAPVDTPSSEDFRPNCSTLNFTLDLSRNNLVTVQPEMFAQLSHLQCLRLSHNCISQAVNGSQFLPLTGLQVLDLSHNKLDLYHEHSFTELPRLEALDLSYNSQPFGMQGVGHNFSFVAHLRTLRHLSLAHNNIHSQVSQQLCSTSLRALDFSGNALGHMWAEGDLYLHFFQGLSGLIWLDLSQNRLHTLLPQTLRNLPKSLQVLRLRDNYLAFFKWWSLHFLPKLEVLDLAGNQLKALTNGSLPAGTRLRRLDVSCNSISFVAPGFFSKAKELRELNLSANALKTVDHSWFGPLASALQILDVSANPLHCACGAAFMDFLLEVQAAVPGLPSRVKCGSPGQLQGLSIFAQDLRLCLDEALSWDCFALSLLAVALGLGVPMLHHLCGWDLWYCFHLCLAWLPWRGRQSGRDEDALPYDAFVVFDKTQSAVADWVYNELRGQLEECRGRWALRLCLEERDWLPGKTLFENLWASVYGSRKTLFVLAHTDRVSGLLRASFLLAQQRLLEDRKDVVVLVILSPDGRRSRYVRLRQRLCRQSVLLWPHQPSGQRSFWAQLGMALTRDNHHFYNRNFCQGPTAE
Assay: TLR9 inhibition reporter assay (HEK-Blue SEAP reporter, ODN2006 stimulation);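 note: SEAP reporter under IFN-β minimal promoter with five NF-κB and AP-1 sites, 22 h incubation, compounds 0.05 nM–50 µM, inhibition relative to agonist plus DMSO versus known inhibitor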
Details: read-out: TLR9 IC50; HEK-Blue cells overexpressing human TLR9, ODN2006 5 nM, SEAP reporter
pIC50: −log10 of the molar value.
readout-type: pIC50

chem_smiles=CCc1c(-c2ccc(OC)c(OC)c2)[nH]c2ccc(C(=O)N3CCc4ccccc43)cc12 measured_target="human TLR9 (Homo sapiens (Human))" assay_value="< 4.30"
chem_smiles=CCc1c(-c2ccc(OC)c(OC)c2)[nH]c2ccc(C(=O)N3CCC[C@H]3COC)cc12 measured_target="human TLR9 (Homo sapiens (Human))" assay_value="< 4.30"
chem_smiles=Cc1cc(-c2[nH]c3ccc(C(C)(C)C(=O)NC[C@@H](F)C(C)(C)O)cc3c2C(C)C)ccn1 measured_target="human TLR9 (Homo sapiens (Human))" assay_value="< 4.30"
